// data source = BindingDB's records for doi:10.7270/Q21G0K51

Reported IC50 values for a set of molecules
# TESTED_ON: Carboxylic ester hydrolase (Equus caballus)
# Sequence (Q9N1N9 whole entry): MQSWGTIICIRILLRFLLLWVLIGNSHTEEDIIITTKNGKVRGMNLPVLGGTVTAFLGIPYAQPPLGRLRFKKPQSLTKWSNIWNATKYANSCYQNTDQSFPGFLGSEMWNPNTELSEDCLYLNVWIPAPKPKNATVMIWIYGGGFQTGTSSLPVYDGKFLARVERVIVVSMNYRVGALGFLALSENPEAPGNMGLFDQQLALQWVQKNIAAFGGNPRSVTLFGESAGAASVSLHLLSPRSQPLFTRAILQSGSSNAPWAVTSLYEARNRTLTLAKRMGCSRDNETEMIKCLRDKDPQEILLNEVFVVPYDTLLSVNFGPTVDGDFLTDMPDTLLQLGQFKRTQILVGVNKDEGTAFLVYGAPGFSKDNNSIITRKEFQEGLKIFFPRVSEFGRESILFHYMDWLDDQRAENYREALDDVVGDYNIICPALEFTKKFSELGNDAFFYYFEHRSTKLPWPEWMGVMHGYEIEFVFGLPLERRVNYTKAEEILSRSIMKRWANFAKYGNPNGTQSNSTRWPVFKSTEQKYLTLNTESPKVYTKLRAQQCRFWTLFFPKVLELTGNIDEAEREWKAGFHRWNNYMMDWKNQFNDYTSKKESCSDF
# PROTOCOL_NOTES: Cholinesterase Activity Assay
Dear colleague, please send the value followed by its unit.

{"MOLECULE": "CCOP(=O)(OCC)OC(CCC#N)c1ccc(OC)cc1 (stereo not drawn)", "IC50": "20.7 µM"}
{"MOLECULE": "CCOP(=O)(OCC)OC(CCC#N)c1ccccc1 (stereo not drawn)", "IC50": "18.1 µM"}
{"MOLECULE": "COc1ccc(C(CCC#N)OP(=O)(OC)OC)cc1 (stereo not drawn)", "IC50": "23.3 µM"}
{"MOLECULE": "COP(=O)(OC)OC(CCC#N)c1ccccc1 (stereo not drawn)", "IC50": "19.3 µM"}
{"MOLECULE": "CCOP(=O)(OCC)OC(CCC#N)c1ccc(C)cc1 (stereo not drawn)", "IC50": "5.96 µM"}
{"MOLECULE": "COP(=O)(OC)OC(CCC#N)c1ccc(C)cc1 (stereo not drawn)", "IC50": "16 µM"}

Fill in: Carboxylic ester hydrolase (Equus caballus) IC50 for CCOP(=O)(OCC)OC(c1ccccc1)C(C)CC#N (stereo not drawn) = 17.8 µM

Fill in: Carboxylic ester hydrolase (Equus caballus) IC50 for COP(=O)(OC)OC(c1ccccc1)C(C)CC#N (stereo not drawn) = 20.6 µM
